- target.system: N-acetyltransferase II (NAT-II) (Rattus norvegicus, UniProt P50298)
- Sequence (P50298 whole entry): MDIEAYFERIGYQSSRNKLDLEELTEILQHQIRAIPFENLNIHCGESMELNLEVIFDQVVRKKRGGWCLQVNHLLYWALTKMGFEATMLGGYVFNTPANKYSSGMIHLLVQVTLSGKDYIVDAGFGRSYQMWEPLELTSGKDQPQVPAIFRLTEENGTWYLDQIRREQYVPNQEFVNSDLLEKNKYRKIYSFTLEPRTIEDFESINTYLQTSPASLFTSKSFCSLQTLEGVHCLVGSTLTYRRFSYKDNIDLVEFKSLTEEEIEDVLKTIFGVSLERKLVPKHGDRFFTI
- experiment.summary: In vitro metabolic conversion of PA to NAPA in rat liver S9 fractions
measured.quantity: pIC50
Schema: pIC50 number; meaning minus log10 of the concentration expressed in molar units.

Report pIC50 under test system N-acetyltransferase II (NAT-II) (Rattus norvegicus, UniProt P50298) for CN/C(=N/CCSCc1nc[nH]c1C)NC#N .
2.69

---

- experiment.summary: Systemic pharmacokinetics after intravenous administration in rats (noncompartmental analysis)
- condition.description: male, SD, rat, plasma, iv, 10 mg/kg, AUCinf, rats, iv 10 mg/kg PA HCl, co-treatment with cimetidine 100 mg/kg iv 10 min before, plasma
measured.quantity: AUC(0-inf)
Express the reported value numerically, then name its unit.

Give the reported value of AUC(0-inf) for this record: CCN(CC)CCNC(=O)c1ccc(NC(C)=O)cc1 [NAPA, N-acetylprocainamide]
8250 ng·h/mL

---

- experiment.summary: in vivo
- condition.description: male, SD, rat, iv, 10 mg/kg, AUCinf
measured.quantity: AUC(0-inf) (ng·h/mL)
Give the number; ng·h/mL is assumed, so skip it.

Give the reported value of AUC(0-inf) for this record: CCN(CC)CCNC(=O)c1ccc(N)cc1 [PA, procainamide]
2330

---

- experiment.summary: Systemic pharmacokinetics after intravenous administration in rats (noncompartmental analysis)
- condition.description: male, SD, rat, urine and plasma, iv, 10 mg/kg, CLR, rats, iv 10 mg/kg PA HCl, control (without cimetidine); Xe,0-24h/AUCinf
measured.quantity: CL renal

Give the reported value of CL renal for this record: CCN(CC)CCNC(=O)c1ccc(NC(C)=O)cc1 [NAPA, N-acetylprocainamide]
15.2 mL/min/kg

---

- experiment.summary: Systemic pharmacokinetics after intravenous administration in rats (noncompartmental analysis)
- condition.description: male, SD, rat, plasma, iv, 10 mg/kg, CLR, rats, iv 10 mg/kg PA HCl, co-treatment with cimetidine 100 mg/kg iv
measured.quantity: CL renal (mL/min/kg)
Give the number; mL/min/kg is assumed, so skip it.

Give the reported value of CL renal for this record: CCN(CC)CCNC(=O)c1ccc(NC(C)=O)cc1 [NAPA, N-acetylprocainamide]
6.51

---

- experiment.summary: Systemic pharmacokinetics after intravenous administration in rats (noncompartmental analysis)
- condition.description: male, SD, rat, plasma, iv, 10 mg/kg, Tmax, NAPA formed after iv 10 mg/kg PA HCl in rats, control
measured.quantity: Tmax (min)
Give the number; min is assumed, so skip it.

Give the reported value of Tmax for this record: CCN(CC)CCNC(=O)c1ccc(NC(C)=O)cc1 [NAPA, N-acetylprocainamide]
18.8

---

- experiment.summary: PBPK model input parameters for PA and NAPA
- Design: species or system rat
- condition.description: Sprague-Dawley (SD), rat, kidney, intravenous; Kp,ss corrected with ER; read-out: Kp Kidney
- Protocol: For kidney, a major organ where DDIs may occur, a previously described semi-mechanistic model was incorporated in the present study. […] Using the conventional well-stirred liver model, the unbound intrinsic clearance ( CLu,int ) for the hepatic elimination was then calculated as follows:(5) CLu,int=QHR·CLH/fup(QHR−CLH) where QH is the hepatic blood flow. […]
measured.quantity: Kp at 60 min
# output: bare number, no unit

Give the reported value of Kp at 60 min for this record: CCN(CC)CCNC(=O)c1ccc(NC(C)=O)cc1 [NAPA, N-acetylprocainamide]
31.2

---

- experiment.summary: Systemic pharmacokinetics after intravenous administration in rats (noncompartmental analysis)
- condition.description: male, SD, rat, plasma, iv, 10 mg/kg, Tmax, NAPA formed after iv 10 mg/kg PA HCl in rats, co-treatment with cimetidine
measured.quantity: Tmax (min)
Give the number; min is assumed, so skip it.

Give the reported value of Tmax for this record: CCN(CC)CCNC(=O)c1ccc(NC(C)=O)cc1 [NAPA, N-acetylprocainamide]
45

---

- experiment.summary: Tissue distribution of PA and NAPA at steady state (Kp,ss)
- condition.description: male, SD, rat, heart, intravenous, Kp,ss Heart, rats, PA HCl infusion, 60 min, control
measured.quantity: Kp at 1 h

Give the reported value of Kp at 1 h for this record: CCN(CC)CCNC(=O)c1ccc(NC(C)=O)cc1 [NAPA, N-acetylprocainamide]
12.7

---

- experiment.summary: in vivo
- condition.description: rat, kidney, intravenous, 8 mg/kg
measured.quantity: Kp at 90 min
# output: bare number, no unit

Give the reported value of Kp at 90 min for this record: CN/C(=N/CCSCc1nc[nH]c1C)NC#N [cimetidine, Cimetidine]
10.3

---

- experiment.summary: Systemic pharmacokinetics after intravenous administration in rats (noncompartmental analysis)
- condition.description: male, SD, rat, plasma, iv, 10 mg/kg, MRT, rats, iv 10 mg/kg PA HCl, control (without cimetidine)
measured.quantity: MRT (h)
Give the number; h is assumed, so skip it.

Give the reported value of MRT for this record: CCN(CC)CCNC(=O)c1ccc(NC(C)=O)cc1 [NAPA, N-acetylprocainamide]
3.62

---

- experiment.summary: Systemic pharmacokinetics after intravenous administration in rats (noncompartmental analysis)
- condition.description: male, SD, rat, plasma, iv, 10 mg/kg, MRT, rats, iv 10 mg/kg PA HCl, co-treatment with cimetidine 100 mg/kg iv
measured.quantity: MRT (h)
Give the number; h is assumed, so skip it.

Give the reported value of MRT for this record: CCN(CC)CCNC(=O)c1ccc(NC(C)=O)cc1 [NAPA, N-acetylprocainamide]
2.85

---

- experiment.summary: Systemic pharmacokinetics after intravenous administration in rats (noncompartmental analysis)
- condition.description: male, SD, rat, plasma, iv, 100 mg/kg, t1/2β, rats, iv 100 mg/kg cimetidine
measured.quantity: half-life (h)
Give the number; h is assumed, so skip it.

Give the reported value of half-life for this record: CN/C(=N/CCSCc1nc[nH]c1C)NC#N [cimetidine, Cimetidine]
2.27

---

- experiment.summary: Tissue distribution of PA and NAPA at steady state (Kp,ss)
- condition.description: male, SD, rat, brain, intravenous, Kp,ss Brain, rats, PA HCl infusion 2.5 mg/kg/hr, 60 min, control (without cimetidine)
measured.quantity: Kp at 1 h
# output: bare number, no unit

Give the reported value of Kp at 1 h for this record: CCN(CC)CCNC(=O)c1ccc(NC(C)=O)cc1 [NAPA, N-acetylprocainamide]
0.713

---

- experiment.summary: Systemic pharmacokinetics after intravenous administration in rats (noncompartmental analysis)
- condition.description: male, SD, rat, plasma, iv, 10 mg/kg, AUCinf, rats, iv 10 mg/kg PA HCl, control (without cimetidine)
measured.quantity: AUC(0-inf) (ng·h/mL)
Give the number; ng·h/mL is assumed, so skip it.

Give the reported value of AUC(0-inf) for this record: CCN(CC)CCNC(=O)c1ccc(NC(C)=O)cc1 [NAPA, N-acetylprocainamide]
3420

---

- experiment.summary: PBPK model input parameters for PA and NAPA
- Parameters: species or system rat
- condition.description: Sprague-Dawley (SD), rat, liver, intravenous; Kp,ss corrected with ER; read-out: Kp Liver
measured.quantity: Kp at 60 min
# output: bare number, no unit

Give the reported value of Kp at 60 min for this record: CCN(CC)CCNC(=O)c1ccc(NC(C)=O)cc1 [NAPA, N-acetylprocainamide]
19.6

---

- experiment.summary: in vivo
- condition.description: male, SD, rat, iv, 10 mg/kg, MRT
measured.quantity: MRT (min)
Give the number; min is assumed, so skip it.

Give the reported value of MRT for this record: CCN(CC)CCNC(=O)c1ccc(N)cc1 [PA, procainamide]
34.3

---

- experiment.summary: Systemic pharmacokinetics after intravenous administration in rats (noncompartmental analysis)
- condition.description: male, SD, rat, plasma, iv, 10 mg/kg, t1/2β, rats, iv 10 mg/kg PA HCl, co-treatment with cimetidine 100 mg/kg iv
measured.quantity: half-life

Give the reported value of half-life for this record: CCN(CC)CCNC(=O)c1ccc(NC(C)=O)cc1 [NAPA, N-acetylprocainamide]
2.63 h
